# tgt: full length PCNA's binding partners
# protocolText: cell-based or functional assay
Non-standard residues stand in square brackets, D forms with d. No end group written: not given here.
Label 1 when % cancer cell death, U937 cells, 30 µM peptide, 24 h, flow cytometry is strictly below 40%; at or above that, label 0.

Example cases with answers are listed next.
binder	label
[dR][dR][dR][dR][dR][dR][dR][dR][dR]CCLGIPEQEY (cysteine pairing not given here) [R9-caPep (D-nonaarginine linked caPeptide, …)]	0
RRRRRRRRRCCLGIPEQEA [R9-L133A]	1
RRRRRRRRRCCLGIPEQAY [R9-L132A]	0
RRRRRRRRRCCLGAPEQEY [R9-L128A]	1

Problem: Just wondering, is % cancer cell death, U937 cells, 30 µM peptide, 24 h, flow cytometry of RRRRRRRRRCCLGIPEAEY [R9-L131A] below 40%?
Solution: 0

Problem: Just wondering, is % cancer cell death, U937 cells, 30 µM peptide, 24 h, flow cytometry of RRRRRRRRRCCLGIPAQEY [R9-L130A] below 40%?
Solution: 0

Problem: Just wondering, is % cancer cell death, U937 cells, 30 µM peptide, 24 h, flow cytometry of RRRRRRRRRCCLGIAEQEY [R9-L129A] below 40%?
Solution: 0

Problem: Just wondering, is % cancer cell death, U937 cells, 30 µM peptide, 24 h, flow cytometry of RRRRRRRRRCCLAIPEQEY [R9-L127A] below 40%?
Solution: 0

Problem: Just wondering, is % cancer cell death, U937 cells, 30 µM peptide, 24 h, flow cytometry of RRRRRRRRRCCAGIPEQEY [R9-L126A] below 40%?
Solution: 1

This collection of values is drawn from patent US20110076342A1.
